system: MALME-3M melanoma; experiment: NCI-60 one-dose screen, 48 h; details: 10 µM unless noted
About 83,000 compounds went through this panel and 20% of them were active in at least one assay; those are over-represented in the sample as a whole. Calls of active or inactive are those of the source. How the source made its calls: active means growth percent below 10; inactive means the rest.
Respond only with the outcome that fits, drawn from active, inactive

INSERT INTO results (molecule, category_label) VALUES
  ('COc1ccccc1NC(=O)Cn1cc(CN2CCN(c3ccnc4cc(Cl)ccc34)CC2)nn1', 'inactive'),
  ('COc1cccc(CNc2ncnc3c2ncn3C2OC(CO)C(O)C2O)c1O (stereo not drawn)', 'active'),
  ('Oc1c(Cl)cc(Cl)c2ccc(Cn3cc(-c4ccc(C(F)(F)F)cc4)nn3)nc12', 'inactive'),
  ('CC1(C)CCC(S(=O)(=O)c2ccc3c(c2)/C(=N\O)c2cc(S(=O)(=O)N4CCC(O)(c5cccc(C(F)(F)F)c5)CC4)ccc2-3)CC1', 'active'),
  ('Cc1c(-n2nnc(-c3nc4ccccc4s3)c2N)c(=O)n(-c2ccccc2)n1C', 'inactive');

### Prompt What classification did `C=C1C(=O)O[C@H]2[C@H]1CC/C(COC(=O)NCc1ccc(Cn3c(=O)sn(CCI)c3=O)cc1)=C\CC[C@@]1(C)O[C@@H]21` end up with in this test?
### Response active

### Prompt What classification did `CCNc1nc(-c2ccc(Cl)c(OC)c2)c(-c2ccnc(NCCCNS(=O)(=O)c3ccc(Cl)cc3)n2)s1` end up with in this test?
### Response active

### Prompt What classification did `Cc1cc2c(O)c(-c3cc(Cl)ccc3Cl)c3sc(=O)oc3c2cc1C` end up with in this test?
### Response inactive
